# Test system: HOP-92 NSCLC
# Assay Details: NCI tumour cell line growth inhibition, 48 h
The reader will find reported GI50 values listed item by item below.
Property Name: GI50

                                   compound  property_name  recorded_measurement
0  O=c1cc(-c2ccccc2)oc2ccc(OC/C(=N/O)c3ccc(F)cc3)cc12           GI50               11.4 µM
1  COc1cccc(Sc2ccc([N+](=O)[O-])c3no[n+]([O-])c23)c1           GI50               15.5 µM
2  CCN1C(=O)N(CC)C2C1NN=c1s/c(=C\c3cccs3)c(=O)n12 (stereo not given)           GI50             > 25.8 µM
3  Cc1ccc(-c2c(C#N)[n+](=O)c3cc(F)c(F)cc3n2[O-])cc1           GI50               1.68 µM
4  C[C@]12CC[C@@H]3c4ccc(O)cc4CC[C@H]3[C@@H]1CC[C@@H]2NS(=O)(=O)c1cccc(Cl)c1           GI50               2.08 µM

====

# Tested on: HCC-2998 colon
# Assay Details: NCI tumour cell line growth inhibition, 48 h
Entries are grouped by TGI into these classes: bin A: < 3 µM; bin B: ≥ 3 µM and < 50 µM; bin C: ≥ 50 µM

                                    compound             tgt  category_label
 0              C/C(=N/NC(=S)N(C)C)c1ccccc1O  HCC-2998 colon           bin C
 1  O=C1OC(c2ccccc2)(c2ccccc2)c2ccc3ccc(F)cc3c21  HCC-2998 colon           bin C
 2  CC(C)(CN1CCOCC1)C(=O)/C=C/c1ccc(/C=C/C(=O)C(C)(C)CN2CCOCC2)cc1  HCC-2998 colon           bin B
 3  O=C1/C(=C/c2ccc(F)c(F)c2)CN(C(=O)C(Cl)Cl)C/C1=C\c1ccc(F)c(F)c1  HCC-2998 colon           bin A
 4  COC(=O)CCCC1(CCCC(=O)OC)CCCCCCCCC(CCCC(=O)OC)(CCCC(=O)OC)C(=O)C1=O  HCC-2998 colon           bin C
 5  COC1(OC)C2(Cl)C(Cl)=C(Cl)C1(Cl)C1c3ccc(C(C)=O)c4cccc(c34)C12 (stereo unspecified)  HCC-2998 colon           bin C
 6  COCCOC(C)C(=O)C(O)S(=O)(=O)O (stereo unspecified)  HCC-2998 colon           bin C
 7  O=C1C=CC(=O)C2C1Cc1ccccc1C2c1ccccc1 (stereo unspecified)  HCC-2998 colon           bin C
 8  CCC#CC[C@H](O)C/C=C1/C(=O)C=C[C@@H]1C/C=C\CCCC(=O)OC  HCC-2998 colon           bin A
 9  COc1cccc2c1C(=O)c1c(O)c3c(c(O)c1C2=O)C[C@@](O)(C(=O)CN1CCOCC1)C[C@@H]3OC1CC(N)C(O)C(C)O1 (stereo partly specified)  HCC-2998 colon           bin B
10                   Oc1cc(Cl)cc2cc(Cl)cnc12  HCC-2998 colon           bin C
11        COc1ccc(C(C#N)=C2C=CC(=NO)C=C2)cc1  HCC-2998 colon           bin B
12  N=c1n(CC(=O)NC23CC4CC(CC(C4)C2)C3)c2ccccc2n1CC(=O)NC12CC3CC(CC(C3)C1)C2  HCC-2998 colon           bin A
13  O=c1cc(-c2ccccc2)oc2ccc(OC/C(=N/O)c3ccc(F)cc3)cc12  HCC-2998 colon           bin B
14  C=C(C)[C@@H]1C/C=C(/CO)CC[C@H]2O[C@]2(C)CC/C=C(\C)CC1  HCC-2998 colon           bin B
15         Brc1c2nc3ccccc3nc2n2ccc3ccccc3c12  HCC-2998 colon           bin C
16  O=C1NC(O)c2ccccc2O1 (stereo unspecified)  HCC-2998 colon           bin C
17  Cc1cc(Br)cc(C)c1NC(=O)C(=O)C(C(=O)c1ccncc1)C1OC(=O)c2ccccc21 (stereo unspecified)  HCC-2998 colon           bin C
